System under test: DNA topoisomerase 1 (Bos taurus)
Measurement protocol: Compound was evaluated for the inhibition of DNA topoisomerase-1 of calf thymus
Recorded endpoint: pIC50
pIC50 (log units): -log10 of the concentration in mol/L.

Answered cases to consult:
COc1cc(C(C)O)c(OC)c2c1C(=O)C=CC2=O (stereo not given) | 3.96
CCC(O)c1cc(OC)c2c(c1OC)C(=O)C=CC2=O (stereo not given) | 3.91
CCCCCC(O)c1cc(OC)c2c(c1OC)C(=O)C=CC2=O (stereo not given) | 4.41

Exercise: // pIC50 lookup, key: CCCCCCCC(O)c1cc(OC)c2c(c1OC)C(=O)C=CC2=O (stereo not given)
Solution: 4.36

Exercise: CCCCCCC(O)c1cc(OC)c2c(c1OC)C(=O)C=CC2=O (stereo not given) ?
Solution: 4.52
